assay: Population pharmacokinetic analysis; assay type: in vivo, human; conditions: human, plasma, oral, Estimated mean t1/2, CYP2D6-inferred metabolic status UM
PROPERTY LABEL: half-life (h)
Entry rule: numbers only, all in h.

What half-life value was documented for this compound, Br.Cc1ccc(Sc2ccccc2N2CCNCC2)c(C)c1 [vortioxetine] ?
42
